# System: aldehyde oxidase (AO)
# PROTOCOL_DETAILS: Cytosolic clearance incubations (substrate depletion)
# CONDITION_SET: human, human liver cytosol (HLC), probe ziprasidone (1 µM)
EXPERIMENTAL_ENDPOINT: inhibition at 50 µM (%)
Hi! Could you send only the number? It should be in %, unit omitted.

Record NNc1nncc2ccccc12 [hydralazine] . Reported inhibition at 50 µM: 17

* * *

# Tested on: aldehyde oxidase (AO)
# PROTOCOL_DETAILS: Observed clinical pharmacokinetics
# CONDITION_SET: male, human, plasma, intravenous, 80 mg
EXPERIMENTAL_ENDPOINT: CLint scaled

Record N=C(N)NC(=O)c1cnn(-c2cccc3ncccc23)c1C1CC1 [Zoniporide] . Reported CLint scaled: > 1000 mL/min/kg

* * *

Entries and their measured Ki follow.
# ASSAY_TARGET: aldehyde oxidase (AO) (Homo sapiens, UniProt Q06278)
# Sequence (Q06278 whole entry): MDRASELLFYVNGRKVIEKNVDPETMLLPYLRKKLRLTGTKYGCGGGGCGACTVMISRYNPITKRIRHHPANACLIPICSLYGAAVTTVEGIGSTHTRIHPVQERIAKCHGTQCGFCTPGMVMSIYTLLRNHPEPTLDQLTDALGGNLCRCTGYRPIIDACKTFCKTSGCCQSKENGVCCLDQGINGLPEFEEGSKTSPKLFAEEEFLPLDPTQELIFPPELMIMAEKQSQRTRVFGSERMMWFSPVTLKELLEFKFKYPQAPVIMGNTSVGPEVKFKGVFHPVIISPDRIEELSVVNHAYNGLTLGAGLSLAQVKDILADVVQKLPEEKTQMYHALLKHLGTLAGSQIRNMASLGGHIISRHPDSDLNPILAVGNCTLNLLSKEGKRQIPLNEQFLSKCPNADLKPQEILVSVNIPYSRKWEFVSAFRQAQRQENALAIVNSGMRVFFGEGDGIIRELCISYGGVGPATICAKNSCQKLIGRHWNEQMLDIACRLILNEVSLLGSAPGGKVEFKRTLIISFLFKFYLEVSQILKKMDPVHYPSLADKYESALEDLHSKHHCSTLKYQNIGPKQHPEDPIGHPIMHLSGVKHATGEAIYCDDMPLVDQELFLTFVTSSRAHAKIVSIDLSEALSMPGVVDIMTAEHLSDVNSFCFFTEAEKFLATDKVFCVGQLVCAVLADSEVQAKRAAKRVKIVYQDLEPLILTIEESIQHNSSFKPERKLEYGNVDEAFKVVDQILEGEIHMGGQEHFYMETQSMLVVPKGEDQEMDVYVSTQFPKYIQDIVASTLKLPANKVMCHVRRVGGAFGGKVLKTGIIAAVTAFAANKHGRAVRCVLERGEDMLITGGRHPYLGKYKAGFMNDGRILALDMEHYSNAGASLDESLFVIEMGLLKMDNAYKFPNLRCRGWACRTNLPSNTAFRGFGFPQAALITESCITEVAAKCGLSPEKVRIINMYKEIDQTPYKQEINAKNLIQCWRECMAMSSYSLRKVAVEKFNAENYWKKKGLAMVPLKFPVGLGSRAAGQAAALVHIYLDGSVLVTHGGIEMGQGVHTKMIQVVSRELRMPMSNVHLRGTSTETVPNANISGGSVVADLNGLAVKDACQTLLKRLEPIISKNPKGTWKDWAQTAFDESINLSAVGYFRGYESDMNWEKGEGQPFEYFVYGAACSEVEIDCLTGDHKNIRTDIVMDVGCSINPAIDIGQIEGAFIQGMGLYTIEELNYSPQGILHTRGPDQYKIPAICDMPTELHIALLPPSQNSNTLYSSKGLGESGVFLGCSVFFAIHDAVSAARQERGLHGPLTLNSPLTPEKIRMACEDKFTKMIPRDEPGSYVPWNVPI
# PROTOCOL_DETAILS: In vitro AO inhibition (literature)
# CONDITION_SET: Ki,u, Figure 5
# Description: Supplement 5. Exploratory analysis to evaluate potential AO-mediated DDI risks […] Semi-mechanistic model for AO-mediated DDI risk predictions Supp. Table 4. Summary of inhibitor parameters used in the semi -mechanistic static model to evaluate the risk of AO -mediated DDIs Semi-mechanistic model for AO mediated DDI risk predictions: […] dCorrected for the 0.05 mg/mL cytosolic protein from the measured fuinc at 1.5 mg/mL cytosolic protein34, 36
Hi! Could you send only the number? It should be in µM, unit omitted.

CN/C(=N/CCSCc1nc[nH]c1C)NC#N [Cimetidine]    132

Kindly review the next molecule as well.
# lookup: C#Cc1cccc(Nc2ncnc3cc(OCCOC)c(OCCOC)cc23)c1 [Erlotinib] on aldehyde oxidase (AO) (Homo sapiens, UniProt Q06278), Ki = 0.13
